Values were extracted from the supplement of paper PMC9170038.

Test system: MS2 coat protein
Assay: apparent KD of MS2 coat protein; designed switch direction (-1 OFF switch, 1 ON switch): -1; higher = weaker reporter binding
Details: input ligand: none
PARAMETER MEASURED: apparent KD of MS2 coat protein (nM)
Lab book: enter the figure in nM, no units written.

Problem: Endpoint output: apparent KD of MS2 coat protein of ACAAGCUUAAUCAGUAAGAACAUGAGGAUCACCCAUGUAAAAGGGAAGACAAUUGGGUUAUUUAAAGCUCGUCUUAU [JR_STOV1_Sub015] (Eterna round: R97, puzzle: Sensor, turn-off variant 1) . Value?
Solution: 111

Problem: If you can, please state the reported apparent KD of MS2 coat protein value of GCAUCGUAAGGAUAUCAGCCGGUGGUAUACCGAAACAGGGUUGAGAAGGUACAUGAGGAUCACCCAUGUGAUUU [Eternabot (L2) Solution 37] (Eterna round: R97, puzzle: Exclusion 4) .
Solution: 58.6

Problem: Looking for the measured apparent KD of MS2 coat protein of GGACUGCGACACAGCCAAACAAAACAUGAGGAUCACCCAUGUCAGGAUAUACCGAUGCAGCAUCUGUAGAAGGGACAGAUCCAA [Qusorave] (Eterna round: R96, puzzle: Exclusion NG 3) , can you help?
Solution: 85.9

###

For each record, write down the corresponding apparent KD of K4 kissing-loop reporter.
Test system: K4 kissing-loop RNA reporter
Assay: apparent KD of K4 kissing-loop reporter; higher = weaker reporter binding
Settings: Eterna round: R107; input ligand: tryptophan 2.4 mM
Report the value in nM with no unit label.

Problem: apparent KD of K4 kissing-loop reporter lookup needed for AGUGAUGUGGGAAGGAGCGGUAGAUGAGUUCAGUGAUGUUGAAGUGAUGCUGUAGUGAUGUGCCAGGUAGGUCGCCUAGAUGUUA [KL-XARG B24] , thanks.
Solution: 207

Problem: // apparent KD of K4 kissing-loop reporter lookup, key: GAAUGAAAUAUCUGGCCCUAUCAGAAUUGGAAGGAUAUGACGGUCAUCAGAAGGUCCAACUCGUAGUGAUGUUGCGGGUUUUAAA [theeternabot_exclusion_KL_FMN_A_21]
Solution: 36.2

Problem: What value of apparent KD of K4 kissing-loop reporter has been recorded for this entry: UCUGGAGCGUAUGAUACCAGCAGAGAGAGACAGGAAGUAUAGUGAUGUUAUAUGAGAGAAUGCCCUUGGCAGCGUGUGCAGUGGC [#26 K4 Theophylline B Same State]
Solution: 48

Problem: # apparent KD of K4 kissing-loop reporter lookup, item CGUAGUUGGGCGGCCGCCACUUGAAAAGCUUUGCCAAAGGCAGAGCUCUAGAGUGAUGUUCUGGCAAGGACCGGGUCCAACUACA [#03 K4 Tryptophan B Same State]
Solution: 358

###

Tested on: K4 kissing-loop RNA reporter
Test: apparent KD of K4 kissing-loop reporter; higher = weaker reporter binding
Conditions: Eterna round: R107; input ligand: theophylline 20 uM
If the reported apparent KD of K4 kissing-loop reporter equals or exceeds 300 nM, assign rule met. If not, assign rule not met.

Problem: Textbook exercise: given the entry GAAGUACAGGCGGCCGCCACUAGUGAUGUUAGUGAUAAAAGAUAUAGUAAAUAUCGGCAUGUAGAUAGGACCGGGCCUGAUGGAG [ggbgmullin] , state whether its apparent KD of K4 kissing-loop reporter is greater than or equal to 300 nM.
Solution: rule not met

Problem: Check this sequence for apparent KD of K4 kissing-loop reporter at or above 300 nM: UGUCAUUGGUCGGCCGCCACUUCAUAAAGAGUGAUGUUCUGAAAGACGGAUCGAAAGAUCUGUCGAAGGACCGGGACCGAUGACU [FiskerMod 1 - Jieux - Same State - Tryptophan B]
Solution: rule met

Problem: Entry UGUCAUUGGUCGGCCGCCACUAGGACCGGGUUUUACCUAGUGAUGUUAGUAUAAACGGCCGCCACUAGGACCGGGACCGAUGACU [KL-SSTryp-B24 #DoubleAptamer] : is its apparent KD of K4 kissing-loop reporter no less than 300 nM?
Solution: rule met

Problem: Does AUUUAGACGAGUGAUGUUCGUGUUAUUACAGAGGAUAUGCGUAAUUGCAGAAGGCUGUAUUUAUAUAUGUUAUGUAGUUUUAAAA [whbob_Ex_FMNA__2th184] have a reported apparent KD of K4 kissing-loop reporter of at least 300 nM?
Solution: rule not met

Problem: Assess whether reported apparent KD of K4 kissing-loop reporter for UUGAGCCGGACGUAAGUCCGGCUCUGCGAGCGAGGACCGGUACGGCCGCCACUCGGUGCAGUGAUGUUGCAUGGCCGCAAGGCCG [#2 Exclusion - Tryptophan A Attempt #5 (HarryS)] sits at 300 nM or higher.
Solution: rule met

Problem: Hi team, for ACGCUGUGAAUAACACAGCGAAUAAAUUCGCGAGGACCGGUACGGCCGCCACUCGCUAACUGCGAGUGAUGUUCGAUAAUAAAAU [Mat - Mod of OpenEnded 3 - D13] , is the recorded apparent KD of K4 kissing-loop reporter at or above 300 nM?
Solution: rule not met

Problem: Does ACACUAUCGUCAUAGACGGUAGUGAAAGCUCAGGAUAUGAGUGAUGUUAGAAGGGAGUAAAUCUUAGGUAUCGAAUAGAUACCAA [FmnA 7 #K4BetweenAptamer #OpenEnded] have a reported apparent KD of K4 kissing-loop reporter of at least 300 nM?
Solution: rule not met

Problem: Decide: apparent KD of K4 kissing-loop reporter of GCGGGCGGCUGAAGGAGCGGGCGGGCCCGAGUGAUGUUCGGGUGGGCUGUGAGGCCCGGAGCCCAGGUAGGUCGCGGUUCCGCCC [#2 Same State - Arginine B Attempt #26 (HarryS)] >= 300 nM?
Solution: rule not met

Problem: Hello, I need to know if AGAGUUAAUUAGUCUUUUUUAACAUUAAGUCAGGAUAUCGUAUAUUCGAGAAGGGACACAUGCUAGUGAUGUUAGCUAUUUCUCA [JR_ExcFMNA_Sub018] has measured apparent KD of K4 kissing-loop reporter not below 300 nM. Thanks!
Solution: rule not met

Problem: apparent KD of K4 kissing-loop reporter >= 300 nM for GGCAGUGAUGUUGCCAGUGGCAGAUUGGAAGGAGCGUGGUGAGACACAGGUAGGUCGCUAAUUGAAGUUGCUGUCACUAGAAUGC [whbob_Ex_Arginine_A_2t132] ?
Solution: rule met

Problem: In plain terms: is recorded apparent KD of K4 kissing-loop reporter at least 300 nM for GGGCGUGGCGCGGCCGCCACUGGGCCUGGGCGCUCGCUGAGUGAUGUUCGUCGGCGGUUGGGUCGUAGGACCGGGUGCUGGUUGG [BDazzled - #8 SS Tryptophan B] ?
Solution: rule not met

Problem: Could you verify whether the entry CUGGUGCUGAUGCGGUGGCCGGUGGUCGUGCGAGGACCGGUACGGCCGCCACUCGCAUGAGUGAUGUUCAUGUGUCGUCGUCGUC [whbob_EX_Tryp_A_t1] shows apparent KD of K4 kissing-loop reporter of no less than 300 nM?
Solution: rule not met

Problem: Is it the case that UGAUACCAGACGGCCGCCACUUCCGUAAGUCAAAGACUUACCAAGGGAAUCGUCCAGUGAUGUUGGAGGACCGGGUCUGGUAUCU [FiskerMod 6 - Jieux - Exclusion - Tryptophan B] has apparent KD of K4 kissing-loop reporter reaching or exceeding 300 nM?
Solution: rule met

Problem: Quick check, apparent KD of K4 kissing-loop reporter >= 300 nM? AAACUUGCAGUGAUGUUGCAAGUAGGUGAUACCAGCAUCGAAAGAUGCCCUUGGCAGCACCAAAACAUCACUUAGGUGCUGUCUA [(H1)-(H2)-(T1)-(T2)-(H)'-(T)'_Design6]
Solution: rule met

Problem: Item CCUAUCUGUUACGAUACCAGUCAAAGAUAUUUUAUCAAUGCCCUCACCGAGUGAUGUUCGGACCCUUGGCAGCGUCUGGGAUAGG [pnnbmullin] with apparent KD of K4 kissing-loop reporter of 300 nM or above?
Solution: rule not met

Problem: Check if apparent KD of K4 kissing-loop reporter >= 300 nM (inclusive). Item: AAGAGGUAGGCGGCCGCCACUAGUUGUGAACACAUACGAGCCAGUGAUGUUGGUAUUGUGGGCGGUAGGACCGGGCCUACCUGAA [Exclusion - Tryptophan B (Freestyle 19)]
Solution: rule met

###

Tested on: K4 kissing-loop RNA reporter;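 further: bound reporter read as fluorescence of individual clusters on recovered sequencing chips by microscopy, with normalized cluster intensities fitted with a binding model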
Assay: apparent KD of K4 kissing-loop reporter; higher = weaker reporter binding
Conditions: Eterna round: R107; input ligand: none
PARAMETER MEASURED: apparent KD of K4 kissing-loop reporter
Include the unit right after the number.

Problem: GET /values?readout=apparent KD of K4 kissing-loop reporter&item= CGCCGUAAGGCGAGCGCUCCCACUCCGGAAGGAGCGCCCGGAAGGGCAGGUAGGUCGCCGGAGUGAUGUUCCGGUGGAGGGCUCG [#2 Exclusion - Arginine A Attempt #12 (Inspired by Omei)]
Solution: 0.282 µM

Problem: Any idea what apparent KD of K4 kissing-loop reporter was measured for UGUAAGCGCGUAGAUACCAGCAAACAAAGAGUGAUGUUCAGAUUAAGGAAAAGAAAGUAAUGCCCUUGGCAGCUAAUCAUAAGCG [Theophylline B Exclusion; Euphoria Solution] ?
Solution: 0.354 µM

Problem: Quick one: apparent KD of K4 kissing-loop reporter of GAAGGUCAAAGACCUUCGUGCACACCUGAUACCAGUCGCGAAAGCGACCCUUGGCAGCAGGGCAGUGAUGUUGCCAGUGCACAAA [Omei KL Theo A SS A v5] ?
Solution: 0.191 µM

Problem: What does the record list as apparent KD of K4 kissing-loop reporter for GGGAACUCUUACGAUACCAGCCGGAGUGAUGUUCCGUGCUUGGACGUAGUAACCCGCACCGGCCCUUGGCAGCGUGGAUCUUGUG [Esgeonin] ?
Solution: 0.0781 µM

Problem: Item under review: UAUUUAAUUUUUAAUUUUUAAAUUGCUGAUACCAGAGCCAAUUGGCUCCCUUGGCAGCGGAUCGAGUGAUGUUCGUAUAAUUUAA [AK1 SS Theophylline A] . Reported apparent KD of K4 kissing-loop reporter?
Solution: 0.035 µM

Problem: Request the reported apparent KD of K4 kissing-loop reporter associated with CAUACGCAUGGAGGAUAUGAGAUUUUUCAUAUUACUUUUUAUUCUCAGUGAUGUUGGGAUUUGUAAUCAGAAGGCCAUGUGUAUG [#10 K4 FMN B Exclusion]
Solution: 0.0998 µM

Problem: Request the reported apparent KD of K4 kissing-loop reporter associated with GCCGUAGAUUGAAGGAGCGGCACCCACGGCUCUAACACCUAAGUGAUGUUUAGGUAGUGGUGCCAGGUAGGUCGCAAUCUACGGC
Solution: 0.124 µM

Problem: // query apparent KD of K4 kissing-loop reporter value for entry AAGCCAGAGAUUGCUGCGGGUUCCAGAGAUACCAGCCGUAUUGAAGGCCCUUGGCAGCUCGAGUGAUGUUCGAGCCGUCUCCGGC [Onte]
Solution: 0.114 µM

Problem: Give the measured apparent KD of K4 kissing-loop reporter of AAUAAAAUCACGGCCGCCACUGAUUUUUUUAUUAGGAGUGAUGUUCCUUUGUCUAUAUACCUUAACAGGACCGGGUGAAUAUUUA [JR_SSTryptoB_Sub022] .
Solution: 0.0674 µM

Problem: # query: apparent KD of K4 kissing-loop reporter of entry UUAUACAACUGAAGGAGCGCCAGUGAUGUUGGCGUGACGACUGCUUCCUUCGCCGAGUCCUGGCAGGUAGGUCGCAGUUGCUGAA [Oratgere]
Solution: 0.113 µM

Problem: Entry CACUCGGUAUCAGAUACCAGACUAACGAUACCGAGUGUAUCGGGUAGUGAUGUUACCAUAGUCCCUUGGCAGCUGAUAUACCAUA [Theo B SS t9] : reported apparent KD of K4 kissing-loop reporter = ?
Solution: 0.265 µM

Problem: Bench note: what apparent KD of K4 kissing-loop reporter did UAAUAAUAAUGAUAAUAAUAAAGUGGUGGACGAGGACCGGUACGGCCGCCACUCGAAAAUGCAGUGAUGUUGUAAUACAAAUAAU [Exclusion - Tryptophan A (Freestyle 1)] show?
Solution: 0.137 µM

Problem: Which apparent KD of K4 kissing-loop reporter reading was recorded for the sequence CGCAAGCAGCCAGUGAUGUUGGCUGCCUUGCGAGGACCGGUACGGCCGCCACUCGAAGGCAGCUACUGGUAAACCGUCUAACGGA [Atere] ?
Solution: 0.111 µM

Problem: # get_value(readout='apparent KD of K4 kissing-loop reporter', item= ACCCUGGGUCCCGAAAGGGACCCAGGGAGUGAGGAUAUGUGGAAACACAGAAGGCACAGCACAGUGAUGUUGUGCGACGAAAGUC [#02 K4 FMN A Same State] )
Solution: 0.401 µM

Problem: Endpoint output: apparent KD of K4 kissing-loop reporter of GUAGGAUGAGGAGGAGGAUGAAUUACUGAAGGAGCGCAUAGAAAUGCAGGUAGGUCGCGGUAAAGAAGUAUAGUGAUGUUAUAUA [SSArgA.F] . Value?
Solution: 0.448 µM

Problem: Given the entry AUUUAAUGUAUAGAUUAUAUACAUAAUUCAGAGGAUAUGCAUAGAAGCAGAAGGCUGGUUGCAGUGAUGUUGCUUUUUUAAUUUA [JR_SSFMNA_Sub008] , report its measured apparent KD of K4 kissing-loop reporter.
Solution: 0.0767 µM

Problem: Look up apparent KD of K4 kissing-loop reporter: GUAGCACUUGGUAGUGAUGUUACCAAGGACAAGGAUAUCAUCUCAAUGAGAAGGUGUCCUUGGUAACAGCUACGGGAAUAUCCCA [Omei KL FMN A Exc D v2]
Solution: 0.226 µM

Problem: Any idea what its apparent KD of K4 kissing-loop reporter is? The sequence is AUUAAUUUCAGAGGAUAUCGUUAUUUUUUAUAGUAUAUUCAAUUAUGCAGUGAUGUUGCUAUUAAUCGAGAAGGCUGAUUUAUAA [JR_ExcFMNB_Sub002]
Solution: 0.156 µM
